Entries with reported IC50 on Sodium-dependent serotonin transporter (Homo sapiens, UniProt P31645)
Sequence (P31645 whole entry): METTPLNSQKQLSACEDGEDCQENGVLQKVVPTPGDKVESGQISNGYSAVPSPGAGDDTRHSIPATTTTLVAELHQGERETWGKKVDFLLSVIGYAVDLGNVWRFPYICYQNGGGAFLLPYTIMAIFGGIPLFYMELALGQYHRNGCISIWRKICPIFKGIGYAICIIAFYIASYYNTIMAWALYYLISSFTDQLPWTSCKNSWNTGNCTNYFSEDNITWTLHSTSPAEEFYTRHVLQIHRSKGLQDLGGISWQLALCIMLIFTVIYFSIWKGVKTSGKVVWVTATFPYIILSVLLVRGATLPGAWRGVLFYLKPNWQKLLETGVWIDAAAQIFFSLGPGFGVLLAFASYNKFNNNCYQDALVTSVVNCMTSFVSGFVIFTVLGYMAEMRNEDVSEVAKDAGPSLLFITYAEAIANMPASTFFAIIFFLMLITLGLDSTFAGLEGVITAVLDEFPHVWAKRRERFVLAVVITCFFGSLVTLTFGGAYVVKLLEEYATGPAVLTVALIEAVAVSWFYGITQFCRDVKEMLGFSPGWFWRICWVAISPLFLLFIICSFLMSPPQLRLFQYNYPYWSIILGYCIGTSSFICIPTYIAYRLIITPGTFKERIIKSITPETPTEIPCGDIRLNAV

Molecule: CCN1CCC[C@@](COCc2cc(C(F)(F)F)cc(C(F)(F)F)c2)(c2ccccc2)CC1
Relation operator: >
IC50 [nM]: 1000
--
Molecule: CN1CCC[C@@](COCc2cc(C(F)(F)F)cc(C(F)(F)F)c2)(c2ccccc2)CC1
Relation operator: =
IC50 [nM]: 150
--
Molecule: FC(F)(F)c1cc(COCC2(c3ccccc3)CCCNCCC2)cc(C(F)(F)F)c1
Relation operator: =
IC50 [nM]: 51
--
Molecule: CN1CCC(COCc2cc(C(F)(F)F)cc(C(F)(F)F)c2)(c2ccccc2)CC1
Relation operator: =
IC50 [nM]: 14
--
Molecule: FC(F)(F)c1cc(COCC2(c3ccccc3)CCCNC2)cc(C(F)(F)F)c1 (racemic)
Relation operator: =
IC50 [nM]: 25
